Listed next: entries and their corresponding protein stability index.
B1: HDAC6 (parent)
chain: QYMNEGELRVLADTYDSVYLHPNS

variants of: B1; experiment: protein stability index of a GFP-peptide fusion (GPS, HEK-293T) (PSI 1-6); higher = more stable; conditions: c terminus: a fixed tail appended;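 further: lentivirally expressed fusions sorted by FACS into six bins by GFP to DsRed ratio, PSI derived from sequencing read proportions per bin multiplied by bin number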
Could you keep your reply to the number by itself?

Example entries begin here.
V18W : 2.1
Q1C : 1.52
S17T : 2.37
L8F : 1.52
S24A : 1.44

As a next step, examine the variant that follows.
[in] Name the recorded protein stability index for `S24P` .
[out] 1.91

The values you see were collected from the supplement of paper PMC10567573.
